# System: MDA-MB-468
# procedure.text: Cytotoxicity test, luminescent cell viability
# Type: cell-based
# condition.info: Homo sapiens; MDA-MB-468 (Breast cancer), 72-hour incubation
Below is a list of entries, each paired with its recorded pIC50 value.
# pIC50 is unitless: minus log10 of the molar concentration; print number only

Reference set, count: 3
For the compound CC[C@@]1(O)C(=O)OCc2c1cc1n(c2=O)Cc2c-1nc1cc(F)c(C)c3c1c2[C@H](NC(=O)C1CC1)CC3 , give its measured pIC50 value.
8.68

For the compound CCCCC(=O)N[C@@H]1CCc2c(C)c(F)cc3nc4c(c1c23)Cn1c-4cc2c(c1=O)COC(=O)[C@]2(O)CC , give its measured pIC50 value.
8.60

For the compound CC[C@@]1(O)C(=O)OCc2c1cc1n(c2=O)Cc2c-1nc1cc(F)c(C)c3c1c2[C@H](NC(=O)C1COC1)CC3 , give its measured pIC50 value.
8.17

Further cases:
For the compound CC[C@@]1(O)C(=O)OCc2c1cc1n(c2=O)Cc2c-1nc1cc(F)c(C)c3c1c2[C@H](NC(=O)CCOC)CC3 , give its measured pIC50 value.
8.29
